target: PLK1 (Homo sapiens, UniProt P53350); construct: endogenous in cells; host or cells: HeLa; assay: PLK1 protein degradation in HeLa cells, Western blotting (PLK1/GAPDH ratio); format: cell-based; details: thymidine block and release, 6 hours compound incubation, 10 points three-fold from 3 μM, PLK1 to GAPDH ratio, read-out: Dmax
Sequence (P53350 whole entry): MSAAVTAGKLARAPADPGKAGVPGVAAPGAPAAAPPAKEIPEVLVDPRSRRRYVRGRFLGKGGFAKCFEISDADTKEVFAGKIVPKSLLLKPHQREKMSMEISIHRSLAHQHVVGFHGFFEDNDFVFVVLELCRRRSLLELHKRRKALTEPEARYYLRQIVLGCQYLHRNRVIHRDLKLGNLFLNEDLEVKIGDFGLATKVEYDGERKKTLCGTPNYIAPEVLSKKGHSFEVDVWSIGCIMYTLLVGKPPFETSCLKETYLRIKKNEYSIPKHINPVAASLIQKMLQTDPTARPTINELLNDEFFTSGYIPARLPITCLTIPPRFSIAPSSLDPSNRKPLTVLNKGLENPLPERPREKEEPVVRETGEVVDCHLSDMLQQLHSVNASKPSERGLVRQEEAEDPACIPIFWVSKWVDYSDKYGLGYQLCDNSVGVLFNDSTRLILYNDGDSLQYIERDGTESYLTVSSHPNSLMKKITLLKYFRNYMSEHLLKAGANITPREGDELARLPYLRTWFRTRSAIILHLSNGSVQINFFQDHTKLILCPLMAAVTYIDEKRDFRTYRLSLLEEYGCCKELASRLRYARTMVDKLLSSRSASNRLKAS
recorded-metric: Dmax

COc1cc(C(=O)N[C@H]2CCN(C(=O)CCCCCNc3cccc4c3C(=O)N(C3CCC(=O)NC3=O)C4=O)C2)c(F)cc1Nc1ncc2c(n1)N(C1CCCC1)CC(F)(F)C(=O)N2C (some centres unmarked)    ≥ 80%

Could you tell me Dmax for each of these compounds? They are listed below.
1. COc1cc(C(=O)NC2CCN(CCCCCCCCCCCCCCNc3cccc4c3C(=O)N(C3CCC(=O)NC3=O)C4=O)CC2)c(F)cc1Nc1ncc2c(n1)N(C1CCCC1)CC(F)(F)C(=O)N2C (centres unmarked)
2. COc1cc(C(=O)N[C@H]2CC[C@H](N3CCN(CCOCCNc4cccc5c4C(=O)N(C4CCC(=O)NC4=O)C5=O)CC3)CC2)c(F)cc1Nc1ncc2c(n1)N(C1CCCC1)CC(F)(F)C(=O)N2C (some centres unmarked)
3. COc1cc(C(=O)NC2CCN(C(=O)COCCOCCNc3cccc4c3C(=O)N(C3CCC(=O)NC3=O)C4=O)CC2)c(F)cc1Nc1ncc2c(n1)N(C1CCCC1)CC(F)(F)C(=O)N2C (centres unmarked)
4. COc1cc(C(=O)N[C@@H]2CCN(C(=O)CCCCN3CCN(c4ccc5c(c4)C(=O)N(C4CCC(=O)NC4=O)C5=O)CC3)C2)c(F)cc1Nc1ncc2c(n1)N(C1CCCC1)CC(F)(F)C(=O)N2C (some centres unmarked)

Reply text:
1: < 60%; 2: ≥ 80%; 3: ≥ 80%; 4: ≥ 80%

###

biological target: PLK1 (Homo sapiens); construct: endogenous in cells; host or cells: HeLa; test: PLK1 protein degradation in HeLa cells, Western blotting (PLK1/GAPDH ratio); type: cell-based; conditions: 6 hours compound incubation, measured only if the grade of Dmax is A or B
recorded-metric: DC50

Below: 2 compounds and their reported DC50.
COc1cc(C(=O)NC2CCN(CCOCCOCCNc3cccc4c3C(=O)N(C3CCC(=O)NC3=O)C4=O)CC2)c(F)cc1Nc1ncc2c(n1)N(C1CCCC1)CC(F)(F)C(=O)N2C (stereo not drawn)    ≤ 0.05 µM
COc1cc(C(=O)N[C@@H]2CCN(C(=O)CCCCCNc3cccc4c3C(=O)N(C3CCC(=O)NC3=O)C4=O)C2)c(F)cc1Nc1ncc2c(n1)N(C1CCCC1)CC(F)(F)C(=O)N2C (stereo partly drawn)    ≤ 0.05 µM

Inquiry: # input compound: COc1cc(C(=O)NC2CCN(CCOCCOCCCc3cccc4c3C(=O)N(C3CCC(=O)NC3=O)C4=O)CC2)c(F)cc1Nc1ncc2c(n1)N(C1CCCC1)CC(F)(F)C(=O)N2C (stereo not drawn) ; wanted: its DC50
Reply text: ≤ 0.5 µM

###

biological target: PLK1 (Homo sapiens, UniProt P53350); construct: endogenous in cells; host or cells: HeLa; test: PLK1 protein degradation in HeLa cells, Western blotting (PLK1/GAPDH ratio); format: cell-based; settings: thymidine block and release, 6 hours compound incubation, 10 points three-fold from 3 μM, PLK1 to GAPDH ratio, read-out: Dmax
recorded-metric: Dmax

The cases that follow already have their Dmax on record.
COc1cc(C(=O)NC2CCN(C(=O)N3CCN(c4ccc5c(c4)C(=O)N(C4CCC(=O)NC4=O)C5=O)CC3)CC2)c(F)cc1Nc1ncc2c(n1)N(C1CCCC1)CC(F)(F)C(=O)N2C (stereo not drawn)    60 to 80%
COc1cc(C(=O)NCCCCCc2cccc3c2CN(C2CCC(=O)NC2=O)C3=O)c(F)cc1Nc1ncc2c(n1)N(C1CCCC1)CC(F)(F)C(=O)N2C (stereo not drawn)    < 60%

Inquiry: Could you share which Dmax value was measured for COc1cc(C(=O)NC2CCN(CCOCCNC(=O)COc3cccc4c3C(=O)N(C3CCC(=O)NC3=O)C4=O)C2)c(F)cc1Nc1ncc2c(n1)N(C1CCCC1)CC(F)(F)C(=O)N2C (stereo not drawn) ?
Reply text: 60 to 80%
